Molecular target: T1, human GREM1 (hGREM1-His; SEQ ID NO: 595) (human, UniProt O60565 25-184)
T1 construct: also called biotin-hGREM1-His; recombinant human GREM1 protein
T1 sequence: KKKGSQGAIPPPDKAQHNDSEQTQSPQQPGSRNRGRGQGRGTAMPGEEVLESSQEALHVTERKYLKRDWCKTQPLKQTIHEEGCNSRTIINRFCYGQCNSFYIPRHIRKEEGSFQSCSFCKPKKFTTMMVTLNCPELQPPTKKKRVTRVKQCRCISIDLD
Assay: SPR, Biacore T200, 37 C, mAb captured, hGREM1-His injected;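 further: HBS-EP running buffer containing heparin, association and dissociation phases tracked, KD computed as koff over kon and half-life derived from koff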
Decision: t1/2 >= 30 min yields 1, all other cases yield 0.

Reported t1/2 reaches at least 30 min for H4H6243P (antibody, human IgG4, V domains shown, H4H prefix = human IgG4 Fc) VH: QVQLVQSGAEVKKPGASVKVSCKVSGYTLTELSMHWVRQAPGKGLEWMGGFDPEDGETIYAQKFQDRVTMTEDTSTDTAYMELSSLRSEDTAVYYCVTDDYEILPEYPYNMDVWGQGTTVTVSS VL: DIQMTQSPSSLSASVGDRVTITCRASQSISTYLNWYQQKPGKAPKLLIYAASSLQSGVPSRFSGSGSGTDFTLTIRSLQPEDFATYYCQQSHITPFTFGPGTKVDIK ?
0

Reported t1/2 reaches at least 30 min for H4H6232P (antibody, human IgG4, V domains shown, H4H prefix = human IgG4 Fc) VH: QVQLVQSGAEVKKPGASVKVSCKVSGYTLTELSMHWVRQAPGKGLEWMGGFDPEDGETIYAQKFQGRLTMTEDTSTDTAYMELSSLRSEDTAVYYCATDDYDILTSYPYNMDVWGQGTTVTVSS VL: DIQMTQSPSSLSASVGDRVTITCRASQSINNYLNWYQQKPGKAPKLLIYAASSLQSGVPSRFSGSGSGTDFTLTISSLQPEDFGTYYCQQSDSTPFTFGPGTKVDIK ?
1

Reported t1/2 reaches at least 30 min for H4H6240P (antibody, human IgG4, V domains shown, H4H prefix = human IgG4 Fc) VH: QVQLVESGGGVVQPGRSLRLSCAASGFTFSSYGMHWVRQAPGKGLEWVAVIWYDGSNKYYADSVKGRFIISRDNSKNMMYLQMNSLRAEDTAVYYCAREDNWNYAFDYWGQGTLVTVSS VL: EIVMTQSPATLSVSPGERATLSCRASQSISSNLAWYQQKPGQAPRLLIYDSSTRATGIPARFSGSGSGTQFTLTISSLQSEDFALYYCQQYSNWPPFTFGPGTKVDIK ?
0

Reported t1/2 reaches at least 30 min for H4H6245P (antibody, human IgG4, V domains shown, H4H prefix = human IgG4 Fc) VH: EVQLVESGGGLVQPGGSLRLSCAASGFTFNSFWMSWVRQAPGKGLEWVANIKQDGSEKYYVDSVKGRFTISRDNAKNSVYLQMNSLRAEDTAVYYCARDLVTSFDYWGQGTLVTVSS VL: DIQMTQSPSSLSASVGDRVTITCQASQDINNYLNWYQQKPGKAPKLLIYDASYLETGVPSGFSGSGSGTDFTFTISSLQPEDIATYYCQQYDSLPYTFGQGTKLEIK ?
1

Query binder follows.
Reported t1/2 reaches at least 30 min for H4H2892N (antibody, human IgG4, V domains shown, H4H prefix = human IgG4 Fc) VH: QVQLVESGGGVVQPGRSLRLSCAASGFTFSSYGIHWVRQAPGKGLEWVAILWYDGSNKYYADSVKGRFTISRDNSKTTLYLQMNSLRAEDTAVYYCARENYNDLNFDLWGRGTLVTVSS VL: DIQLTQSPSFLSASVGDRVTITCWASQGISSYLAWYQHKPGKAPKLLIYAASTLQSGVPSRFSGSGSGIEFTLTISSLQPEDFATYYCQQLKSYPPWTFGQGTKVEIR ?
0
